Target: Gal(b1-4)GlcNAc(b1-6)Gal(b1-4)GlcNAc
Test: glycan array binding signal (z-score within array); higher = stronger binding
Conditions: glycan notation: IUPAC condensed, linker removed
Many of the other results were omitted from the sample, so the strongest signals are more common in it than they were.
I'd be grateful if you could share measured glycan array binding signal (z-score) for these entries.
Reply briefly: the number, and no unit.

// field: glycan array binding signal (z-score); key: MXA PilAct-eGFP (Myxococcus xanthus), Q59589 (protein) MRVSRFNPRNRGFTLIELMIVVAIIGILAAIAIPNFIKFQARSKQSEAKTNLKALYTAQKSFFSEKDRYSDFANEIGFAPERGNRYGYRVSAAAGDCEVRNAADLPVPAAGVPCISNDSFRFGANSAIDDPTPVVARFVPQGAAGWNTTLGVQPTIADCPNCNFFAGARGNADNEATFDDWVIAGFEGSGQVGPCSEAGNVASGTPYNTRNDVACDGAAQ ; value = 0.221

// field: glycan array binding signal (z-score); key: AT3G09350(27) (Arabidopsis thaliana), Q84J81 (protein) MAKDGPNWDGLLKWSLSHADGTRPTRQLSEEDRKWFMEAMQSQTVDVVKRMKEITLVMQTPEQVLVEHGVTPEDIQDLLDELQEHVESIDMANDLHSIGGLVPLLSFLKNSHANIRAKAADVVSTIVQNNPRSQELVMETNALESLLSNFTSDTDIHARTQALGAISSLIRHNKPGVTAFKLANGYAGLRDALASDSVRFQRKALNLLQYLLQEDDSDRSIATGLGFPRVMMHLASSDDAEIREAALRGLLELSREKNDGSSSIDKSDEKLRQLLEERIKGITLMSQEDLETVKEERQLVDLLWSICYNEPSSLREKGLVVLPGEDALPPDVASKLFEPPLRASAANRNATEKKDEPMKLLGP ; value = 3.1
